Origin of the recorded values: patent US10941152B2

- Assay system: follicle-stimulating hormone (FSH) receptor (Rattus norvegicus, UniProt P20395)
- Construct: endogenous in cells
- Sequence (P20395 18-692): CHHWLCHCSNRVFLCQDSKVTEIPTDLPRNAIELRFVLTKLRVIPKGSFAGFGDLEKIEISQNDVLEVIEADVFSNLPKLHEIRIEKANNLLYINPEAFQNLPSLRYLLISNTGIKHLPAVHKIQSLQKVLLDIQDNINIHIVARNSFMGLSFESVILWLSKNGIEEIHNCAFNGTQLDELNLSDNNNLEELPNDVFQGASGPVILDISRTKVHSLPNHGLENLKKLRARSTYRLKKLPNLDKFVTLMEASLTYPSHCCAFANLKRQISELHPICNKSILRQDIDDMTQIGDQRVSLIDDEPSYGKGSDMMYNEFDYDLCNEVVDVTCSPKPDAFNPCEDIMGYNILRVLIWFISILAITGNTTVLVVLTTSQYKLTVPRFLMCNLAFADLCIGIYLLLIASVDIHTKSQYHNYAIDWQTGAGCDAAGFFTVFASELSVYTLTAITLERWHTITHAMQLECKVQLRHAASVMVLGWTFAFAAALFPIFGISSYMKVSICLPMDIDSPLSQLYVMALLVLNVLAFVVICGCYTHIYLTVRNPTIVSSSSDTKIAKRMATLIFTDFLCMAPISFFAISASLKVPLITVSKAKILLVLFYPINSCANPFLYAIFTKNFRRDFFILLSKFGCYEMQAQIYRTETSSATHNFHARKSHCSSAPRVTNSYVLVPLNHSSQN
- Test description: Rat granulosa EC50 FSH (Assay B)
Measurement name: EC50

Example entries and their recorded answers appear below.
- COc1cc2c(cc1-c1cc(C(N)=O)ncc1F)-c1c(c(C(=O)N(C)C(C)(C)C)nn1-c1cc(Cl)cc(Cl)c1)CO2: 0.101 to 0.5 µM
- COCC1(CC(F)(F)F)CCCN1C(=O)c1nn(-c2ccsc2)c2c1COc1cc(OC)c(-c3ccn(C)n3)cc1-2 (centres unmarked): 0.01 to 0.1 µM
- COc1cc2c(cc1-c1cnn(CC(N)=O)c1)-c1c(c(C(=O)N3CC[S+]([O-])CC3(C)C)nn1-c1cc(F)cc(F)c1)CO2 (centres unmarked): 0.101 to 0.5 µM
- COc1cc2c(cc1-c1cccnc1Cl)-c1c(c(C(=O)N(C)C(C)(C)C)nn1-c1ccsc1)CO2: 0.101 to 0.5 µM
- COc1cc2c(cc1-c1cc(C(=O)O)ccc1F)-c1c(c(C(=O)N(C)C(C)(C)C)nn1-c1cc(Cl)cc(Cl)c1)CO2: > 0.5 µM
- COc1cc2c(cc1-c1ccn(C)n1)-c1c(c(C(=O)N(C)C(C)(C)C)nn1-c1cc(Cl)cc(Cl)c1)CO2: > 0.5 µM
- COc1cc2c(cc1-c1ccn(C)n1)-c1c(c(C(=O)N3C[C@H](O)[C@H](O)CC3(C)C)nn1-c1ccsc1)CO2: 0.101 to 0.5 µM
- COc1cc2c(cc1-c1ccnc(C#N)c1)-c1c(c(C(=O)N(C)C(C)(C)C)nn1-c1cc(Cl)cc(Cl)c1)CO2: 0.01 to 0.1 µM
- COc1cc(Cl)cc(-n2nc(C(=O)N3CCOCC3(C)C)c3c2-c2cc(-c4cnn(CC(=O)O)c4)c(OC)cc2OC3)c1: 0.101 to 0.5 µM
- COC(=O)c1cc(-c2cc3c(cc2OC)OCc2c(C(=O)N(C)C(C)(C)C)nn(-c4cc(F)cc(F)c4)c2-3)cnc1N: 0.01 to 0.1 µM

Entry `COc1cc2c(cc1-c1ccn(C)n1)-c1c(c(C(=O)N3CCOCC3(C)C)nn1-c1cc(F)cc(F)c1)CO2` under follicle-stimulating hormone (FSH) receptor (Rattus norvegicus, UniProt P20395) had EC50 of 0.101 to 0.5 µM

Entry CCOC(=O)[C@@H]1C[C@@H]1c1cc2c(cc1OC)OCc1c(C(=O)N(C)C(C)(C)C)nn(-c3cc(Cl)cc(Cl)c3)c1-2 (racemic) under follicle-stimulating hormone (FSH) receptor (Rattus norvegicus, UniProt P20395) had EC50 of > 0.5 µM

Entry `COc1cc2c(cc1-c1cc(C(N)=O)ncn1)-c1c(c(C(=O)N(C)C(C)(C)C)nn1-c1cc(Cl)cc(Cl)c1)CO2` under follicle-stimulating hormone (FSH) receptor (Rattus norvegicus, UniProt P20395) had EC50 of 0.101 to 0.5 µM

Entry `COc1cc(Cl)cc(-n2nc(C(=O)N3CCOCC3(C)C)c3c2-c2cc(-c4ccn(C)n4)c(OC)cc2OC3)c1` under follicle-stimulating hormone (FSH) receptor (Rattus norvegicus, UniProt P20395) had EC50 of 0.01 to 0.1 µM

Entry `COc1cc2c(cc1-c1cnn(CCO)c1)-c1c(c(C(=O)N(C)C(C)(C)C)nn1-c1cc(Cl)cc(Cl)c1)CO2` under follicle-stimulating hormone (FSH) receptor (Rattus norvegicus, UniProt P20395) had EC50 of 0.01 to 0.1 µM

Entry `COc1cc2c(cc1-c1cccc(C(N)=O)c1)-c1c(c(C(=O)N(C)C(C)(C)C)nn1-c1cc(Cl)cc(Cl)c1)CO2` under follicle-stimulating hormone (FSH) receptor (Rattus norvegicus, UniProt P20395) had EC50 of 0.01 to 0.1 µM

Entry `COc1cc2c(cc1-c1nn(C)cc1C#N)-c1c(c(C(=O)N(C)C(C)(C)C)nn1-c1cc(F)cc(F)c1)CO2` under follicle-stimulating hormone (FSH) receptor (Rattus norvegicus, UniProt P20395) had EC50 of 0.01 to 0.1 µM

Entry `COc1cc2c(cc1-c1nccc(C(N)=O)n1)-c1c(c(C(=O)N(C)C(C)(C)C)nn1-c1cc(Cl)cc(Cl)c1)CO2` under follicle-stimulating hormone (FSH) receptor (Rattus norvegicus, UniProt P20395) had EC50 of 0.101 to 0.5 µM

Entry COc1cc2c(cc1-c1cnn(CC(N)=O)c1)-c1c(c(C(=O)N(C)C(C)(C)C)nn1-c1cc(Cl)cc(Cl)c1)CO2 [Compound 67] under follicle-stimulating hormone (FSH) receptor (Rattus norvegicus, UniProt P20395) had EC50 of 0.101 to 0.5 µM

Entry `COc1cc2c(cc1-c1cncc(C(N)=O)c1C)-c1c(c(C(=O)N(C)C(C)(C)C#N)nn1-c1cc(F)cc(F)c1)CO2` under follicle-stimulating hormone (FSH) receptor (Rattus norvegicus, UniProt P20395) had EC50 of 0.101 to 0.5 µM

Entry `COc1cc2c(cc1-c1cnn(CC(N)=O)c1)-c1c(c(C(=O)N3CCOCC3(C)C)nn1-c1cc(F)cc(F)c1)CO2` under follicle-stimulating hormone (FSH) receptor (Rattus norvegicus, UniProt P20395) had EC50 of 0.01 to 0.1 µM

Entry COc1cc2c(cc1-c1cccnc1F)-c1c(c(C(=O)N3CC[S+]([O-])CC3(C)C)nn1-c1cc(Cl)cc(Cl)c1)CO2 (centres unmarked) under follicle-stimulating hormone (FSH) receptor (Rattus norvegicus, UniProt P20395) had EC50 of 0.101 to 0.5 µM

Entry `COc1cc2c(cc1-c1cc(C#N)c[n+]([O-])c1)-c1c(c(C(=O)N3CCOCC3(C)C)nn1-c1cc(Cl)cc(Cl)c1)CO2` under follicle-stimulating hormone (FSH) receptor (Rattus norvegicus, UniProt P20395) had EC50 of 0.01 to 0.1 µM

Entry `COc1cc2c(cc1-c1cc(C(N)=O)ccn1)-c1c(c(C(=O)N(C)C(C)(C)C#N)nn1-c1cc(Cl)cc(Cl)c1)CO2` under follicle-stimulating hormone (FSH) receptor (Rattus norvegicus, UniProt P20395) had EC50 of 0.01 to 0.1 µM

Entry `COc1cc2c(cc1-c1cnn(C(N)=O)c1)-c1c(c(C(=O)N(C)C(C)(C)C)nn1-c1cc(Cl)cc(Cl)c1)CO2` under follicle-stimulating hormone (FSH) receptor (Rattus norvegicus, UniProt P20395) had EC50 of 0.01 to 0.1 µM

Entry `COc1cc2c(cc1-c1cnn(CCO)c1)-c1c(c(C(=O)N3CCOCC3(C)C)nn1-c1cc(F)cc(Cl)c1)CO2` under follicle-stimulating hormone (FSH) receptor (Rattus norvegicus, UniProt P20395) had EC50 of 0.01 to 0.1 µM

* * *

Listed compounds paired with reported pEC50
- Assay system: follicle-stimulating hormone (FSH) receptor (Rattus norvegicus, UniProt P20395)
- Construct: endogenous in cells
- Test description: Rat granulosa EC50 FSH (Assay B)
pEC50: −log10 of the molar value.

Short answer for `COc1cc2c(cc1-c1cncc(C(N)=O)c1)-c1c(c(C(=O)N(C)C(C)(C)C(N)=O)nn1-c1cc(F)cc(F)c1)CO2` : pEC50 was < 6.30

Short answer for `COc1cc(-c2cc3c(cc2OC)OCc2c(C(=O)N(C)C(C)(C)C)nn(-c4cc(Cl)cc(Cl)c4)c2-3)cc(C(N)=O)n1` : pEC50 was 7.00 to 8.00

Short answer for `COc1cc2c(cc1-c1cncc(C(N)=O)c1)-c1c(c(C(=O)N(C)C(C)(C)C)nn1-c1ccsc1)CO2` : pEC50 was 7.00 to 8.00

Short answer for `COc1cc2c(cc1-c1cc(C(N)=O)ccn1)-c1c(c(C(=O)N(C)C(C)(C)C)nn1-c1cc(Cl)cc(Cl)c1)CO2` : pEC50 was 7.00 to 8.00

Short answer for COc1cc2c(cc1-c1cncc(C(N)=O)c1)-c1c(c(C(=O)N3CC[S+]([O-])CC3(C)C)nn1-c1cc(F)cc(F)c1)CO2 (centres unmarked) : pEC50 was 6.30 to 7.00
